Test system: P388 leukemia ip, CD2F1 mice, survival T/C
EXPERIMENTAL_PROTOCOL: NCI In Vivo Anticancer Drug Screen. Data for tumor model P388 Leukemia (intraperitoneal) in CD2F1 (CDF1) mice
CONDITION_DESCRIPTION: endpoint: median survival time; dose: 50.0 mg/kg/injection; schedule: Q04DX003 (ip); vehicle: saline with Tween-80
Inconclusive results and toxic doses are left out. The calls were made as follows: active = survival T/C of 150% or more; inactive = T/C below 125% in these data.
The categories you may choose from are T = active, F = inactive

{"columns": ["COMPOUND", "MEASUREMENT_TARGET", "QUALITATIVE_LABEL"],
 "data": [
  ["COc1cc(CNNc2ccc(NC(C)=O)cc2N)ccc1OC(C)=O", "P388 leukemia ip, CD2F1 mice, survival T/C", "F"],
  ["COc1cc(C=Nc2cccc(Cl)c2)ccc1N(CCCl)CCCl", "P388 leukemia ip, CD2F1 mice, survival T/C", "T"],
  ["O=C(/C=C\\c1ccc(NCc2ccc(C(=O)O)cc2)cc1)CCl", "P388 leukemia ip, CD2F1 mice, survival T/C", "F"],
  ["NS(=O)(=O)c1ccc(C(=O)O)cc1", "P388 leukemia ip, CD2F1 mice, survival T/C", "F"],
  ["Cc1nc2c([N+](=O)[O-])c(NCCCc3ccccc3)c([N+](=O)[O-])cc2[nH]1", "P388 leukemia ip, CD2F1 mice, survival T/C", "F"]
]}

q: How was NNC(=O)CCC(N)C(=O)O (stereo unspecified) classified in this test?
a: F
